# studyTarget: h-GABA-A α5β3γ2 (Homo sapiens (Human), UniProt P18507+P31644)
# method: [3H]flumazenil competition binding assay, membranes of HEK293 cells expressing human GABAA receptors
# testParameters: displacement of [3H]flumazenil 0.5 nM, HEK293 cells expressing human receptors, mean of two determinations; read-out: Ki h-GABA-A α5β3γ2
# Description: The affinity of compounds at GABAA receptor subtypes was measured by competition for [3H]flumazenil (85 Ci/mmol; Roche) binding to HEK293 cells expressing rat (stably transfected) or human (transiently transfected) receptors of composition α1β3γ2, α2β3γ2, α3β3γ2 and α5β3γ2. […]
observedProperty: pKi
Field pKi (float): negative decimal logarithm of the concentration in molar.

• Cc1ccc(-c2noc(C)c2COc2nnc(C(N)=O)cc2C)cn1 = 8.92
• Cc1ccc(-c2noc(C)c2COc2cnc(C(=O)NC3CC3)cn2)cn1 = 8.04
• CCc1onc(-c2ccc(C)nc2)c1COc1ccc(C(=O)NC2CCOCC2)cn1 = 7.51

Request: Please tell me: pKi of `Cc1ccc(-c2noc(C)c2COc2ccc(C(=O)NC3CC4(C3)CC(F)(F)C4)nn2)cn1` , system h-GABA-A α5β3γ2 (Homo sapiens (Human), UniProt P18507+P31644)?
Result: 7.72

Request: And for `Cc1ccc(-c2noc(C(F)F)c2COc2ccc(C(=O)NC3CCOCC3)cn2)cn1` ?
Result: 7.30

Request: And for `Cc1ccc(-c2noc(C)c2COc2ccc(C(=O)NC3(C)COC3)nn2)cn1` ?
Result: 8.30

Request: And for `Cc1ccc(-c2noc(C)c2COc2cnc(C(=O)N[C@@H]3CCOC3)cn2)cn1` ?
Result: 7.88

Request: And for `CCC[C@@H](CO)NC(=O)c1ccc(OCc2c(-c3ccc(OC)nc3)noc2C)nc1` ?
Result: 7.71

---

# studyTarget: h-GABA-A α5β3γ2 (Homo sapiens (Human), UniProt P18507+P31644)
# method: [3H]flumazenil competition binding assay, membranes of HEK293 cells expressing human GABAA receptors
# testParameters: displacement of [3H]flumazenil 0.5 nM, HEK293 cells expressing human receptors, mean of two determinations; read-out: Ki h-GABA-A α5β3γ2
Could you mark each record YES if its Ki falls strictly under 9 nM, and NO if it equals or exceeds it?

Request: Determine if Cc1ccc(-c2noc(C)c2COc2ccc(C(=O)N3CC4(C3)CS(=O)(=O)C4)nn2)cn1 [Example 112] shows Ki strictly lower than 9 nM.
Result: YES

Request: And for Cc1ccc(-c2noc(C)c2COc2ccc(C(=O)N[C@H]3CC[C@](O)(C(F)(F)F)C3)nn2)cn1 (single isomer, unassigned) [Example 150] ?
Result: NO

Request: And for Cc1ccc(-c2noc(C)c2COc2ccc(C(=O)N3CCC34COC4)nn2)cn1 [Example 63] ?
Result: YES

Request: And for CO[C@H]1CC[C@H](NC(=O)c2ccc(OCc3c(-c4ccc(C)nc4)noc3C)nn2)CC1 [Example 154] ?
Result: NO

---

# studyTarget: h-GABA-A α5β3γ2 (Homo sapiens (Human), UniProt P18507+P31644)
# method: [3H]flumazenil competition binding assay, membranes of HEK293 cells expressing human GABAA receptors
# testParameters: displacement of [3H]flumazenil 0.5 nM, HEK293 cells expressing human receptors, mean of two determinations; read-out: Ki h-GABA-A α5β3γ2
Quick reference: Ki of the listed items.
// units = nM; emit number, no label

• Cc1ccc(-c2noc(C)c2COc2ccc(C(=O)NCC(C)C)cn2)cn1 [Example 11] = 11.2
• CCc1onc(-c2ccc(C)nc2)c1COc1ccc(C(=O)NC2(C)COC2)nn1 [Example 122] = 26.4
• Cc1ccc(-c2noc(C)c2COc2ccc(C(=O)N[C@H]3CCOC[C@@H]3O)cn2)cn1 [Example 127] = 22.8

Here is another molecule to look at.
Request: Please tell me: Ki of Cc1ncc(-c2noc(C)c2COc2ccc(C(=O)NC(C)C)cn2)cc1F [Example 144] , system h-GABA-A α5β3γ2 (Homo sapiens (Human), UniProt P18507+P31644)?
Result: 13.6
